phenotypic distance listing for selected compounds.
- System: E13 (patient-derived glioblastoma stem cells of classical subtype)
- MEASUREMENT_DESCRIPTION: phenotypic distance (Euclidean, principal components) from DMSO controls (arbitrary units); higher = stronger morphological change;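 also: cell Painting imaging in 384-well plates, CellProfiler features reduced to at least 20 principal components, Euclidean distance versus same-plate DMSO vehicle wells (0.1% v/v), median over six images per well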
- TEST_SETTINGS: 12.34567901 nM; exposure time: 72 h
Counter-ions that a name gives are not always drawn.
# output: bare number, no unit

The cases that follow already have their phenotypic distance on record.
COMPOUND	phenotypic distance
CC(C)C[C@H](NC(=O)[C@H](Cc1ccccc1)NC(=O)c1cnccn1)B(O)O [Bortezomib]	2.3
OCCN1C[C@H](O)[C@@H](O)[C@H](O)[C@H]1CO [Miglitol]	0.499
CC(C)C[C@H](NC(=O)[C@H](Cc1ccccc1)C[C@@H](O)[C@H](Cc1ccccc1)NC(=O)OC(C)(C)C)C(=O)N[C@@H](Cc1ccccc1)C(N)=O [L-685,458]	0.727
COc1cc2nc(N3CCN(C(=O)c4ccco4)CC3)nc(N)c2cc1OC [Prazosin hydrochloride]	3.49

# ---- query compound ----
Query: phenotypic distance; subject: C/C=C(\C)C(=O)N[C@@H](c1ccccc1)[C@@H](O)C(=O)O[C@H]1C[C@@]2(O)[C@@H](OC(=O)c3ccccc3)[C@@H]3[C@]4(OC(C)=O)CO[C@@H]4C[C@H](O)[C@@]3(C)C(=O)[C@H](OC(C)=O)C(=C1C)C2(C)C [Cephalomannine]
4.51

---

- Test system: FT3469 (normal neural stem cell line)
- MEASUREMENT_DESCRIPTION: phenotypic distance (Euclidean, principal components) from DMSO controls (arbitrary units); higher = stronger morphological change
- TEST_SETTINGS: 111.1 nM; exposure time: 72 h
Counter-ions that a name gives are not always drawn.
# if value of phenotypic distance reaches 1, tag 1 (yes); if it stays below, tag 0 (no)

For orientation, consider the following solved cases.
COMPOUND	GROUP_LABEL
N=C(NCCCCCCNC(=N)NC(=N)Nc1ccc(Cl)cc1)NC(=N)Nc1ccc(Cl)cc1 [Chlorhexidine]	0 (no)
CCOC(=O)OC(C)OC(=O)[C@@H]1N2C(=O)[C@@H](NC(=O)[C@H](N)c3ccccc3)[C@H]2SC1(C)C (some centres undefined) [Bacampicillin hydrochloride]	0 (no)
Nc1ccc(-c2ccc3ncc4ccc(=O)n(-c5cccc(C(F)(F)F)c5)c4c3c2)cn1 [Torin2]	1 (yes)
COc1cc(NS(C)(=O)=O)ccc1Nc1c2ccccc2nc2ccccc12 [Amsacrine]	1 (yes)
COc1cc2c(NC3CCN(C(C)C)CC3)nc(C3CCCCC3)nc2cc1OCCCN1CCCC1 [UNC0638]	0 (no)

Reported phenotypic distance reaches at least 1 for CC(=O)[C@]1(O)Cc2c(O)c3c(c(O)c2[C@@H](O[C@H]2C[C@H](N)[C@H](O)[C@H](C)O2)C1)C(=O)c1ccccc1C3=O [Idarubicin] ?
1 (yes)

Would you mind doing COc1nc(C)nc(Cl)c1NC1=NCCN1 [Moxonidine] as well?
0 (no)

Would you mind doing O=C(Nc1ccc([N+](=O)[O-])cc1Cl)c1cc(Cl)ccc1O [Niclosamide] as well?
1 (yes)

Would you mind doing CN1C(=O)CC(c2ccccc2)C1=O (centres undefined) [Phensuximide] as well?
0 (no)

Would you mind doing C/C(=C\c1csc(C)n1)[C@@H]1C[C@@H]2O[C@]2(C)CCC[C@H](C)[C@H](O)[C@@H](C)C(=O)C(C)(C)[C@@H](O)CC(=O)N1 [Ixabepilone] as well?
1 (yes)

Would you mind doing CCCCCCNC(=O)n1cc(F)c(=O)[nH]c1=O [Carmofur] as well?
1 (yes)

Would you mind doing NCCCP(=O)(O)O [3-Aminopropylphosphonic acid] as well?
0 (no)

Would you mind doing COc1cc([C@@H]2c3cc4c(cc3[C@H](O)[C@H]3COC(=O)[C@H]23)OCO4)cc(OC)c1OC [Podophyllotoxin] as well?
1 (yes)

Would you mind doing CCC1=C[C@@H]2CN(C1)Cc1c([nH]c3ccccc13)[C@@](C(=O)OC)(c1cc3c(cc1OC)N(C)[C@H]1[C@@](O)(C(=O)OC)[C@H](OC(C)=O)[C@]4(CC)C=CCN5CC[C@]31[C@@H]54)C2 [Vinorelbine Tartrate] as well?
1 (yes)

Would you mind doing CC(C)N1CCN(c2ccc(OCC3COC(Cn4cncn4)(c4ccc(Cl)cc4Cl)O3)cc2)CC1 (centres undefined) [Terconazole] as well?
0 (no)

Would you mind doing CC(NCCC(c1ccccc1)c1ccccc1)c1ccccc1 (centres undefined) [Fendiline hydrochloride] as well?
0 (no)

Would you mind doing CCc1c2c(nc3ccc(OC(=O)N4CCC(N5CCCCC5)CC4)cc13)-c1cc3c(c(=O)n1C2)COC(=O)[C@]3(O)CC [Irinotecan] as well?
1 (yes)

Would you mind doing COc1cc(N)c(Cl)cc1C(=O)NC1CCN(CCCOc2ccc(F)cc2)CC1OC (centres undefined) [Cisapride] as well?
1 (yes)

Would you mind doing COc1cccc2c(NCc3ccccc3)nc(-n3c(N)nc4ccccc43)nc12 [ML240] as well?
1 (yes)

Would you mind doing CC(C)C[C@H](NC(=O)[C@H](CCc1ccccc1)NC(=O)CN1CCOCC1)C(=O)N[C@@H](Cc1ccccc1)C(=O)N[C@@H](CC(C)C)C(=O)[C@@]1(C)CO1 [Carfilzomib] as well?
1 (yes)

Would you mind doing `O=C(C1CC1)N1CC[C@@H](Cc2n[nH]c(=O)n2-c2ccc(-c3ccc4occc4c3)cc2)C1` as well?
1 (yes)

Would you mind doing Nc1nc(=O)c2nc(CNc3ccc(C(=O)N[C@@H](CCC(=O)O)C(=O)O)cc3)cnc2[nH]1 [Folic acid] as well?
0 (no)
